Target: UniProt:Q00536
Sequence (Q00536 whole entry): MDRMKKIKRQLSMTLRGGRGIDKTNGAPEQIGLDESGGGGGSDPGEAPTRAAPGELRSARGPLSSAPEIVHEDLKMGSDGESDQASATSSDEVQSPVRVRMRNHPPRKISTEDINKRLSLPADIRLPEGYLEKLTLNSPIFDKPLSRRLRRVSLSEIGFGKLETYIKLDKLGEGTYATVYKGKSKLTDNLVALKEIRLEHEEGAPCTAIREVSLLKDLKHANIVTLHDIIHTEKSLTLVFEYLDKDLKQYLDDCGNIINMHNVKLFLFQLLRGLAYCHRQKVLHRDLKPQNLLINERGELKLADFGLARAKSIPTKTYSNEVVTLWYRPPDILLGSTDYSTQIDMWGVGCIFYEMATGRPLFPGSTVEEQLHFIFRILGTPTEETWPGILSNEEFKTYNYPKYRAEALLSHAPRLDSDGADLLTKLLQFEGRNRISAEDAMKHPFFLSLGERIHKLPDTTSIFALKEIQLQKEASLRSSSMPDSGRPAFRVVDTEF
pKd: −log10 of the molar value.

SMILES REPRESENTATION	pKd
CC(C)c1c2cc(-c3ccnc(N[C@H]4CC[C@H](N)C4)n3)ccc2nn1C	8.09

====

Assay: Pharmacokinetic study in male Beagle dogs
Format: in vivo
Settings: dog, plasma, oral 3 mg/kg
ASSAY METRIC: AUC(0-inf)

MOLECULE	RESULT VALUE
CC(C)c1c2cc(-c3ccnc(N[C@H]4CC[C@H](N)C4)n3)ccc2nn1C [Compound I-2]	1340 ng·h/mL

====

Target: CDK5/P21 (Homo sapiens, UniProt Q00535)
Sequence (Q00535 whole entry): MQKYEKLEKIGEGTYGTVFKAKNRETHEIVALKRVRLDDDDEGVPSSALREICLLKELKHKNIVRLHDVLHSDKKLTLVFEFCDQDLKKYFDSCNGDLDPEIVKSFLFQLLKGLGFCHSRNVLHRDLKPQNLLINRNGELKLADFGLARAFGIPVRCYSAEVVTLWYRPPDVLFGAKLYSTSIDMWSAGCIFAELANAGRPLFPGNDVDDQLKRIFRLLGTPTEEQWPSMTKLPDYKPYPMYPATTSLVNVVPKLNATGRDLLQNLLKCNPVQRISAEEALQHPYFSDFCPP
Sequence (Q15078 99-307 partner limits assumed): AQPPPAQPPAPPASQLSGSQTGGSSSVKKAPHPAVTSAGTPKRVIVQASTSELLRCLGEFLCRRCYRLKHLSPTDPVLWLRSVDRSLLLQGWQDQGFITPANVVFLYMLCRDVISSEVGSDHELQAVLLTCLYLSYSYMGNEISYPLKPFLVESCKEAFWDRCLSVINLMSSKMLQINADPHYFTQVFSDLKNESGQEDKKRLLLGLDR
Assay: CDK family kinase profiling, radioisotope-based assay (33P)
Details: read-out: 10-dose IC50
ASSAY METRIC: IC50 (nM)

SMILES REPRESENTATION	MEASURED TARGET	READING UNIT	RESULT VALUE
CC(C)c1c2cc(-c3ccnc(N[C@H]4CC[C@H](N)C4)n3)ccc2nn1C	CDK5/P21 (Homo sapiens, UniProt Q00535)	nM	245

====

Assay: Pharmacokinetic study in male Beagle dogs
Type: in vivo
Conditions: dog, plasma, oral 3 mg/kg

COMPOUND	READING UNIT	AUC
CC(C)c1c2cc(-c3ccnc(N[C@H]4CC[C@H](N)C4)n3)ccc2nn1C [Compound I-2]	ng·h/mL	1300

====

Target: CDK4/cyclinD (Homo sapiens)
Sequence (P11802 whole entry): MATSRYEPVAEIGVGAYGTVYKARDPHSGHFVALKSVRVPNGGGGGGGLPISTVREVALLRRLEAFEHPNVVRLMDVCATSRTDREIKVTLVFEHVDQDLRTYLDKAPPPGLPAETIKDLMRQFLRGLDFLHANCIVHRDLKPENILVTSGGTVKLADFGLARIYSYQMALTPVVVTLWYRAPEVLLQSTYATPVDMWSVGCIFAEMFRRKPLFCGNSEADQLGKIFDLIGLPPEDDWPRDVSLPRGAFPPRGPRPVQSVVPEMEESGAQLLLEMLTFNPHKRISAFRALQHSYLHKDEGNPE
Sequence (P24385 whole entry partner): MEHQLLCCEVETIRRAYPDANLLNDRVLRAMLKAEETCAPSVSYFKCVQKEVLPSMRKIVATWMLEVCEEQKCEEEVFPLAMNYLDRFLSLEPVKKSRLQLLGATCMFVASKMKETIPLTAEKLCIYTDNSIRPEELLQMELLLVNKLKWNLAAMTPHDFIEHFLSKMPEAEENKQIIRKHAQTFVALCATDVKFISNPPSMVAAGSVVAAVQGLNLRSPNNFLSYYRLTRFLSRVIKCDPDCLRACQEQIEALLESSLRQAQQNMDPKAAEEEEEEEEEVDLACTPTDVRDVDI
Experiment: DiscoveRx KINOMEscan Kd (KdELECT)
pKd: −log10 of the molar value.

SMILES REPRESENTATION	MEASURED TARGET	pKd
CC(C)c1c2cc(-c3ccnc(N[C@H]4CC[C@H](N)C4)n3)ccc2nn1C	CDK4/cyclinD (Homo sapiens)	7.66

====

Test: Pharmacokinetic study in male Beagle dogs
Type: in vivo
Conditions: dog, plasma, IV 1 mg/kg
ASSAY METRIC: AUC (ng·h/mL)

SMILES REPRESENTATION	ASSAY METRIC	RESULT VALUE
CC(C)c1c2cc(-c3ccnc(N[C@H]4CC[C@H](N)C4)n3)ccc2nn1C	AUC	529
